// compounds with pIC50 on Aurora kinase B (Homo sapiens, UniProt Q96GD4), multi-source literature
Sequence (Q96GD4 whole entry): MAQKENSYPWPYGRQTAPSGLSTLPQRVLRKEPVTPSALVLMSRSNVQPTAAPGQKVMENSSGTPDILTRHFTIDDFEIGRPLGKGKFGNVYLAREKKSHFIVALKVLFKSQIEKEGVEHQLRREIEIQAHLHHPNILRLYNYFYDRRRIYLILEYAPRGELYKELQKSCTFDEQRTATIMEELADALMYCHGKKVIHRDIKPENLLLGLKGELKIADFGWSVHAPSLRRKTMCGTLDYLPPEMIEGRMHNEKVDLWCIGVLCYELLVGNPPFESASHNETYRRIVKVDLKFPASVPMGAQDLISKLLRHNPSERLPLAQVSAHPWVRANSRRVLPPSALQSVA
Quick note: pIC50 values are minus log10 of concentrations in mol/L.

>  <compound>
COc1ccc2c(c1)[C@]1(C[C@H]1c1ccc3c(-c4ccc(N5CCNCC5)cc4)n[nH]c3c1)C(=O)N2

>  <target of assay>
Aurora kinase B (Homo sapiens, UniProt Q96GD4)

>  <reported result>
8.16

$$$$
>  <compound>
COc1cc2nccc(Oc3ccc4c(C(=O)NC5(C)CC5)cccc4c3)c2cc1OC

>  <target of assay>
Aurora kinase B (Homo sapiens, UniProt Q96GD4)

>  <reported result>
7.21

$$$$
>  <compound>
Cc1ccc2c(c1)C(=O)N(C)c1cnc(Nc3ccc(S(N)(=O)=O)cc3)nc1N2C

>  <target of assay>
Aurora kinase B (Homo sapiens, UniProt Q96GD4)

>  <reported result>
8.38

$$$$
>  <compound>
COc1ccc(-c2nc3c(OCCCNC(=O)C4CCCC4)c(Br)cnc3[nH]2)cc1

>  <target of assay>
Aurora kinase B (Homo sapiens, UniProt Q96GD4)

>  <reported result>
6.81

$$$$

input: I'd like to know its pIC50. The compound in question is COc1cc2c(Nc3ccc(-c4nc5ccccc5s4)c(O)c3)ncnc2cc1OCCCN1CCN(C)CC1
output: 7.23

input: Could you do the same for O=C(Nc1ccc(NC(=O)c2ccccn2)cc1)c1ccc(O)c([N+](=O)[O-])c1 , please?
output: 4.64

input: Could you do the same for Cn1cc(-c2cc3nccnc3c(NCC3CNCC(F)(F)C3)n2)cn1 (racemic) , please?
output: 6.30

input: Could you do the same for CCOC(=O)c1[nH]cc2c1NC1=C(C(=O)CN(C(=O)CN)C1)[C@H]2c1ccc(Sc2nc3c(F)cccc3[nH]2)o1 , please?
output: 8.70
